The entries below are paired with their reported pKi.
Target: neuronal nicotinic acetylcholine receptors (Rattus norvegicus, UniProt P09483+P12390)
Construct: crude synaptic membrane preparations from whole rat brain; from tissue; host or cells: whole rat brain, crude synaptic membranes
Sequence (P09483 31-630): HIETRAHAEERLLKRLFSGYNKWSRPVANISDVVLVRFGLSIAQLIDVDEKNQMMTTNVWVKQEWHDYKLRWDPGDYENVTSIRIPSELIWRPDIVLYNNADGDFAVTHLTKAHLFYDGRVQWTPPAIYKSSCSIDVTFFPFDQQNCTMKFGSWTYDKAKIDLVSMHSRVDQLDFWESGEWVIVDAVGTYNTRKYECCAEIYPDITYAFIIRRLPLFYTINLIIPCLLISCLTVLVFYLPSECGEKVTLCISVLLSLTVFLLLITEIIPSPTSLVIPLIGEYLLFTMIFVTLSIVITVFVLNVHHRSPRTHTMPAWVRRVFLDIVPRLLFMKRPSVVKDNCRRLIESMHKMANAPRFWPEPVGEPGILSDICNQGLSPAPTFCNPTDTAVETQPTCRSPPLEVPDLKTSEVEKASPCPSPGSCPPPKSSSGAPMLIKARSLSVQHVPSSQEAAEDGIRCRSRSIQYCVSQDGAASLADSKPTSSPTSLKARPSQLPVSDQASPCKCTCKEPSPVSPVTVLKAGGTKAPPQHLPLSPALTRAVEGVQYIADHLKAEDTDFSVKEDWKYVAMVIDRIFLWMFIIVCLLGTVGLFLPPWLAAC
Sequence (P12390 25-500): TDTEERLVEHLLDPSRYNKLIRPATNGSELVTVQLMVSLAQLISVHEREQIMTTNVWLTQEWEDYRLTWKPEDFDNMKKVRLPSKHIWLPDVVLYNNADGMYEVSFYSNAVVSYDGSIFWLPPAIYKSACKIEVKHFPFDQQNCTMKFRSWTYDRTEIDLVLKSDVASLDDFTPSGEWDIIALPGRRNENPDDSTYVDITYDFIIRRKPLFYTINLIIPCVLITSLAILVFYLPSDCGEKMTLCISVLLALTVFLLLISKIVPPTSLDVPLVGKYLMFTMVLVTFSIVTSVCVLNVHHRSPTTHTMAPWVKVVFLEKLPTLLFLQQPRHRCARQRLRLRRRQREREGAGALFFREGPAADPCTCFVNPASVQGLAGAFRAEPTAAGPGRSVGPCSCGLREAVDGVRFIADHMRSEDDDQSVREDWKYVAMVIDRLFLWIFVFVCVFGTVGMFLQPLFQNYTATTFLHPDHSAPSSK
Test: Binding of [3H]-cytisine to neuronal nicotinic acetylcholine receptors, crude synaptic membranes from whole rat brain
Counter-ions that a name gives are not always drawn.
Scale for pKi: -log10 of concentration given in mol/L; no unit attached.

Before answering, review these 5 worked examples.
compound: CN(C)[C@H]1CCN(c2ccc(Cl)nc2)C1
pKi: 7.21

compound: N[C@@H]1CCCN(c2cccnc2)C1
pKi: 8.96

compound: CN[C@H]1CCN(c2cncc([N+](=O)[O-])c2)C1
pKi: 7.92

compound: CN[C@H]1CCN(c2cnc(F)c(C)c2)C1 [Example 26, dihydrochloride]
pKi: 8.82

compound: N[C@@H]1CCN(c2cnc(Cl)c(Cl)c2)C1 [Example 21, dihydrochloride]
pKi: 9.89

Entry N[C@H]1CCN(c2cnc(Cl)c(Cl)c2)C1 [Example 19, dihydrochloride] ; pKi = 10.30

Entry CN[C@@H]1CCN(c2cnc(Cl)c(Cl)c2)C1 [Example 22, hydrochloride] ; pKi = 7.89

// provenance: patent US7332504B2
